test method notes: Oral bioavailability in rat (Sprague-Dawley) (male)
Type: ADME, organism-based
test settings: in vivo
Is bioavailability at least 60%? Then YES. If not, NO.

# count of solved cases: 2
Cn1c2c(c3c(N4CCCC4)nc(N4CCCC4)nc31)CCCC2 = YES
Cc1cc2c(N3CCCC3)nc(N3CCCC3)nc2n1C = YES

Query: Does the molecule `c1ccc2c(c1)c1c(N3CCCC3)nc(N3CCCC3)nc1n2CCN1CCOCC1` have recorded bioavailability that is 60% or more?
Reply: YES

Query: Does the molecule `Cn1c(-c2ccccc2)cc2c(N3CCCC3)nc(N3CCCC3)nc21` have recorded bioavailability that is 60% or more?
Reply: NO

Query: Does the molecule `C1CCc2c(c3c(N4CCCC4)nc(N4CCCC4)nc3n2CCN2CCOCC2)C1` have recorded bioavailability that is 60% or more?
Reply: YES

Query: Does the molecule `Cn1c(-c2ccc(O)cc2)cc2c(N3CCCC3)nc(N3CCCC3)nc21` have recorded bioavailability that is 60% or more?
Reply: NO

* * *

test method notes: The compound was tested for terminal half-life pharmacokinetic parameter in the male Sprague-Dawley rat.
Assay type: ADME, organism-based
test settings: in vivo
Is half-life at least 10 h? Then true. If not, false.

Query: Does the compound `Cc1cc2c(N3CCCC3)nc(N3CCCC3)nc2n1C` have recorded half-life that is 10 h or more?
Reply: true

Query: Does the compound `Cn1c(-c2ccc(O)cc2)cc2c(N3CCCC3)nc(N3CCCC3)nc21` have recorded half-life that is 10 h or more?
Reply: false

Query: Does the compound `C1CCc2c(c3c(N4CCCC4)nc(N4CCCC4)nc3n2CCN2CCOCC2)C1` have recorded half-life that is 10 h or more?
Reply: true

Query: Does the compound `COc1ccc(-c2cc3c(N4CCCC4)nc(N4CCCC4)nc3n2C)cc1` have recorded half-life that is 10 h or more?
Reply: true

Query: Does the compound `Cn1c(-c2ccccc2)cc2c(N3CCCC3)nc(N3CCCC3)nc21` have recorded half-life that is 10 h or more?
Reply: true

Query: Does the compound `c1ccc2c(c1)c1c(N3CCCC3)nc(N3CCCC3)nc1n2CCN1CCOCC1` have recorded half-life that is 10 h or more?
Reply: true

Query: Does the compound `Cn1c2c(c3c(N4CCCC4)nc(N4CCCC4)nc31)CCCC2` have recorded half-life that is 10 h or more?
Reply: false

* * *

As shown below, each of these compounds has a reported Tmax value.
test method notes: The compound was tested for tmax value pharmacokinetic parameter in the male Sprague-Dawley rat.
Assay type: ADME, organism-based
test settings: in vivo
Write it as a number; the unit h goes unstated.

Solved cases below.
Cn1c(-c2ccccc2)cc2c(N3CCCC3)nc(N3CCCC3)nc21 = 4
Cc1cc2c(N3CCCC3)nc(N3CCCC3)nc2n1C = 4
Cn1c(-c2ccc(O)cc2)cc2c(N3CCCC3)nc(N3CCCC3)nc21 = 8
Cn1c2c(c3c(N4CCCC4)nc(N4CCCC4)nc31)CCCC2 = 2
c1ccc2c(c1)c1c(N3CCCC3)nc(N3CCCC3)nc1n2CCN1CCOCC1 = 2

The reported value for `C1CCc2c(c3c(N4CCCC4)nc(N4CCCC4)nc3n2CCN2CCOCC2)C1` in terms of Tmax is 2

The reported value for `COc1ccc(-c2cc3c(N4CCCC4)nc(N4CCCC4)nc3n2C)cc1` in terms of Tmax is 4

* * *

As shown below, each of these compounds has a reported inhibition in vivo at 3 mg/kg/day value.
System: Mus musculus
test method notes: The compound was tested for inhibition of lung eosinophilia in mouse at 3 mg/kg/day, po
Type: functional
Write it as a number; the unit % goes unstated.

Solved cases below.
C1CCc2c(c3c(N4CCCC4)nc(N4CCCC4)nc3n2CCN2CCOCC2)C1 = 37
Cn1c2c(c3c(N4CCCC4)nc(N4CCCC4)nc31)CCCC2 = 0
c1ccc2c(c1)c1c(N3CCCC3)nc(N3CCCC3)nc1n2CCN1CCOCC1 = 53

# input for lookup
The reported value for `Cc1cc2c(N3CCCC3)nc(N3CCCC3)nc2n1C` in terms of inhibition in vivo at 3 mg/kg/day is 0

* * *

As shown below, each of these compounds has a reported log10(Vd) value.
test method notes: The compound was tested for steady state volume of distribution pharmacokinetic parameter in the male Sprague-Dawley rat.
Type: ADME, organism-based
test settings: in vivo
Answers are given as log10 of Vd in L/kg.

Solved cases below.
Cn1c(-c2ccccc2)cc2c(N3CCCC3)nc(N3CCCC3)nc21 = 1.64
Cn1c(-c2ccc(O)cc2)cc2c(N3CCCC3)nc(N3CCCC3)nc21 = 1.82
c1ccc2c(c1)c1c(N3CCCC3)nc(N3CCCC3)nc1n2CCN1CCOCC1 = 0.28
Cn1c2c(c3c(N4CCCC4)nc(N4CCCC4)nc31)CCCC2 = 0.04
Cc1cc2c(N3CCCC3)nc(N3CCCC3)nc2n1C = 1.60
C1CCc2c(c3c(N4CCCC4)nc(N4CCCC4)nc3n2CCN2CCOCC2)C1 = -0.03

# input for lookup
The reported value for `COc1ccc(-c2cc3c(N4CCCC4)nc(N4CCCC4)nc3n2C)cc1` in terms of log10(Vd) is 1.63

* * *

test method notes: The compound was tested for Cmax value pharmacokinetic parameter in the male Sprague-Dawley rat.
Format: ADME, organism-based
test settings: in vivo
Is Cmax at least 6000 ng/mL? Then TRUE. If not, FALSE.

# count of solved cases: 3
Cn1c2c(c3c(N4CCCC4)nc(N4CCCC4)nc31)CCCC2 = TRUE
C1CCc2c(c3c(N4CCCC4)nc(N4CCCC4)nc3n2CCN2CCOCC2)C1 = TRUE
c1ccc2c(c1)c1c(N3CCCC3)nc(N3CCCC3)nc1n2CCN1CCOCC1 = TRUE

Query: Does the compound `COc1ccc(-c2cc3c(N4CCCC4)nc(N4CCCC4)nc3n2C)cc1` have recorded Cmax that is 6000 ng/mL or more?
Reply: FALSE

Query: Does the compound `Cn1c(-c2ccc(O)cc2)cc2c(N3CCCC3)nc(N3CCCC3)nc21` have recorded Cmax that is 6000 ng/mL or more?
Reply: FALSE

Query: Does the compound `Cc1cc2c(N3CCCC3)nc(N3CCCC3)nc2n1C` have recorded Cmax that is 6000 ng/mL or more?
Reply: FALSE

Query: Does the compound `Cn1c(-c2ccccc2)cc2c(N3CCCC3)nc(N3CCCC3)nc21` have recorded Cmax that is 6000 ng/mL or more?
Reply: FALSE

* * *

As shown below, each of these compounds has a reported clearance value.
test method notes: The compound was tested for systemic clearance pharmacokinetic parameter in the male Sprague-Dawley rat.
Type: ADME, organism-based
test settings: in vivo
Write it as a number; the unit mL/min/kg goes unstated.

Solved cases below.
C1CCc2c(c3c(N4CCCC4)nc(N4CCCC4)nc3n2CCN2CCOCC2)C1 = 0.967
Cn1c2c(c3c(N4CCCC4)nc(N4CCCC4)nc31)CCCC2 = 1.67
COc1ccc(-c2cc3c(N4CCCC4)nc(N4CCCC4)nc3n2C)cc1 = 20.7
Cc1cc2c(N3CCCC3)nc(N3CCCC3)nc2n1C = 8.83
Cn1c(-c2ccc(O)cc2)cc2c(N3CCCC3)nc(N3CCCC3)nc21 = 38.8

The reported value for `Cn1c(-c2ccccc2)cc2c(N3CCCC3)nc(N3CCCC3)nc21` in terms of clearance is 23.7

The reported value for `c1ccc2c(c1)c1c(N3CCCC3)nc(N3CCCC3)nc1n2CCN1CCOCC1` in terms of clearance is 2

Ref: ChEMBL document CHEMBL1128318
